Source: patent EP1203770A1

# TEST_TARGET: HIV-1 protease (Human immunodeficiency virus type 1 group M subtype B)
# Construct: The protease (or proteinase), consisting of only 99 amino acids, is among the smallest enzymes known
# PROTOCOL_SUMMARY: In vitro HIV protease inhibitory assay (HIV Protease FITC Assay)
# Assay type: biochemical
# MEASUREMENT_SETUP: HIV-1 Dose 0.410 uM; read-out: HIV-1 Protease % Inhib
Ranges used to classify inhibition at 0.41 µM: lo = under 60%, mid = from 60% up to 80%, hi = 80% and over

Check out these entries, answers already filled in.
MOLECULE	ASSIGNED_CLASS
CCC(CC)c1oc(=O)c(C(c2ccccc2)C2CC2)c(O)c1CCOCCOC (centres unmarked)	lo
COCCOCCOCCc1c(C(CC2CC2)CC2CC2)oc(=O)c(C(c2ccccc2)C2CC2)c1O (centres unmarked)	lo
CC(C)(C)c1nc(CCc2cc(O)c(C(c3ccccc3)C3CC3)c(=O)o2)no1 (centres unmarked)	lo

Determine which band this molecule sits in: O=c1oc(CCc2ccc3ccccc3n2)cc(O)c1C(c1ccccc1)C1CC1 (centres unmarked) lo

What do you get for CCC(Cc1cccs1)c1cc(O)c(C(c2ccccc2)C2CC2)c(=O)o1 (centres unmarked) ? mid

One more molecule: CCC(C1=C(O)CC2(CCC3(CC2)OCCO3)OC1=O)c1ccccc1 (centres unmarked) lo

Lookup CCC(Cc1ccccc1)c1oc(=O)c(C(CC)c2ccccc2)c(O)c1Br (centres unmarked) lo

Could you do the same for CCC(CC1OCCO1)c1cc(O)c(C(c2ccccc2)C2CC2)c(=O)o1 (centres unmarked) , please? mid

Now this one: O=c1oc(CCC2OCCO2)cc(O)c1C(c1ccccc1)C1CC1 (centres unmarked) lo

What about O=c1oc(CCCCl)cc(O)c1C(c1ccccc1)C1CC1 (centres unmarked) ? lo

* * *

# TEST_TARGET: HIV-1 protease (Human immunodeficiency virus type 1 group M subtype B)
# Construct: The protease (or proteinase), consisting of only 99 amino acids, is among the smallest enzymes known
# PROTOCOL_SUMMARY: In vitro HIV protease inhibitory assay (HIV Protease FITC Assay)
# Format: biochemical
# MEASUREMENT_SETUP: HIV-1 Dose 0.410 uM; read-out: HIV-1 Protease % Inhib
Each entry gets not fulfilled if its inhibition at 0.41 µM stays under 50%, and fulfilled if its inhibition at 0.41 µM is 50% or above.

Is it the case that CCC(Cc1ccccc1)c1cc(O)c(C(c2cccc(NC(=O)OCc3ccccc3)c2)C2CC2)c(=O)o1 (stereo not drawn) [Example 36] has inhibition at 0.41 µM reaching or exceeding 50%? not fulfilled

Please answer likewise for CCC(Cc1ccc(Cl)s1)c1cc(O)c(C(c2ccccc2)C2CC2)c(=O)o1 (stereo not drawn) [Example 52] fulfilled

Entry to check: O=c1oc(CCCCN2CCOCC2)cc(O)c1C(c1ccccc1)C1CC1 (stereo not drawn) [Example 48] not fulfilled

What do you get for CCC(c1ccccc1)c1c(O)c(Br)c(CCc2ccccc2)oc1=O (stereo not drawn) [Example 105] ? not fulfilled

Try this molecule next: CCC(Cc1c(C)noc1C)c1cc(O)c(C(c2ccccc2)C2CC2)c(=O)o1 (stereo not drawn) [Example 54] fulfilled

Similarly, CCC(C1=C(O)CC2(CCC(=O)CC2)OC1=O)c1ccccc1 (stereo not drawn) [Example 115] ? not fulfilled

Would you mind doing Cc1nc(CCc2cc(O)c(C(c3ccccc3)C3CC3)c(=O)o2)cs1 (stereo not drawn) [Example 50] as well? not fulfilled

* * *

# TEST_TARGET: HIV-1 protease (Human immunodeficiency virus type 1 group M subtype B)
# Construct: The protease (or proteinase), consisting of only 99 amino acids, is among the smallest enzymes known
# PROTOCOL_SUMMARY: In vitro HIV protease inhibitory assay (HIV Protease FITC Assay)
# Type: biochemical
MEASUREMENT_NAME: pKi
Numbers only, as −log10 of the molar value.

Below, each entry is followed by its recorded pKi result.
COMPOUND	pKi
CCC(Cc1ccccc1)c1cc(O)c(C(c2cccc(NC(=O)Cc3ccncc3)c2)C2CC2)c(=O)o1 (stereo not drawn)	7.35
CCCC1(c2ccccc2)CC(O)=C(C(CC)c2ccccc2)C(=O)O1 (stereo not drawn)	6.60
CCC(c1ccccc1)C1C(=O)CC(CC)(c2ccccc2)OC1=O (stereo not drawn)	6.79
CCCC1(CCc2ccccc2)CC(O)=C(C(CC)c2ccccc2)C(=O)O1 (stereo not drawn)	7.46
CCC(Cc1ccccc1)c1cc(O)c(C(c2cccc(NS(=O)(=O)c3ccc(Cl)cc3)c2)C2CC2)c(=O)o1 (stereo not drawn)	7.83

GET /values?readout=pKi&item= CCC(C1=C(O)CC(c2ccccc2)(C2CCCCC2)OC1=O)c1cccc(O)c1 (stereo not drawn) 6.21

* * *

# TEST_TARGET: HIV-1 protease (Human immunodeficiency virus type 1 group M subtype B, UniProt P04585)
# Construct: The protease (or proteinase), consisting of only 99 amino acids, is among the smallest enzymes known
# PROTOCOL_SUMMARY: In vitro HIV protease inhibitory assay (HIV Protease FITC Assay)
# Format: biochemical
# MEASUREMENT_SETUP: HIV-1 Dose 11.000 uM; read-out: HIV-1 Protease % Inhib
The threshold is inclusive: inhibition at 11 µM of exactly 90% counts as yes; values below receive no.

COMPOUND	ASSIGNED_CLASS
COCCOCCOCCCc1cc(O)c(C(c2ccccc2)C2CC2)c(=O)o1 (stereo not shown) [Example 108]	no

Reported inhibition at 11 µM reaches at least 90% for CCCc1oc(=O)c(C(c2ccccc2)C2CC2)c(O)c1CCOCCOC (stereo not shown) [Example 78] ? yes

Record: CCC(Cc1ccccn1)c1cc(O)c(C(c2ccccc2)C2CC2)c(=O)o1 (stereo not shown) [Example 63] yes

* * *

# TEST_TARGET: HIV-1 protease (Human immunodeficiency virus type 1 group M subtype B, UniProt P04585)
# Construct: The protease (or proteinase), consisting of only 99 amino acids, is among the smallest enzymes known
# PROTOCOL_SUMMARY: In vitro HIV protease inhibitory assay (HIV Protease FITC Assay)
# Type: biochemical
# MEASUREMENT_SETUP: HIV-1 Dose 1.230 uM; read-out: HIV-1 Protease % Inhib
# Description: The HIV protease screening assay is based on a fluorescently labeled substrate which can be resolved from nonlabeled cleavage product using avidin-polystyrene particles, 0.7-0.9 µm. […] The labeled cleavage product is separated from the unreacted substrate via filtration and is read on the Idexx Screen Machine. The data are analyzed by appropriate computer algorithms to ascertain percent inhibition values.
MEASUREMENT_NAME: inhibition at 1.23 µM (%)
Numbers only, in %.

Some entries whose results are on file:
COMPOUND	inhibition at 1.23 µM, %
COCCOCCOCCCc1cc(O)c(C(c2ccccc2)C2CC2)c(=O)o1 (stereo not drawn)	20.4
CCC(c1ccccc1)c1c(O)c(Br)c(CCc2ccccc2)oc1=O (stereo not drawn)	38.9
CCC(Cc1ccccc1)c1cc(O)c(C(c2cccc(NC(=O)OCc3ccccc3)c2)C2CC2)c(=O)o1 (stereo not drawn)	13.7
CCC(CC)c1oc(=O)c(C(c2ccccc2)C2CC2)c(O)c1CCOCCOC (stereo not drawn)	16.1

Provide the reported inhibition at 1.23 µM of each entry below, same order.
1. O=c1oc(C(Cc2ccccc2)Cc2ccccn2)cc(O)c1C(c1ccccc1)C1CC1 (stereo not drawn)
2. CCC(Cc1ccc(Cl)s1)c1cc(O)c(C(c2ccccc2)C2CC2)c(=O)o1 (stereo not drawn)
3. CCCc1oc(=O)c(C(c2ccccc2)C2CC2)c(O)c1CCOCCOC (stereo not drawn)

1. 65
2. 86.2
3. 68.9

* * *

# TEST_TARGET: HIV-1 protease (Human immunodeficiency virus type 1 group M subtype B, UniProt P04585)
# Construct: The protease (or proteinase), consisting of only 99 amino acids, is among the smallest enzymes known
# PROTOCOL_SUMMARY: In vitro HIV protease inhibitory assay (HIV Protease FITC Assay)
# Assay type: biochemical
# MEASUREMENT_SETUP: HIV-1 Dose 10.000 uM; read-out: HIV-1 Protease % Inhib
Give measured inhibition at 10 µM for each item. Keep answers brief.
One number for each entry, in %.

Consider the reported inhibition at 10 µM for these molecules:
MOLECULE	UNIT_SYMBOL	inhibition at 10 µM
CC(C)C(Cc1ccccc1)c1cc(O)c(C(c2ccccc2)C2CC2)c(=O)o1 (stereo not shown)	%	110
CCC(Cc1cccc(C(F)(F)F)c1)c1cc(O)c(C(c2ccccc2)C2CC2)c(=O)o1 (stereo not shown)	%	96.5
O=c1oc(CCCF)cc(O)c1C(c1ccccc1)C1CC1 (stereo not shown)	%	59.7

Turning now to a further molecule:
Look up inhibition at 10 µM for this molecule: CCC(Cc1ccccc1)c1cc(O)c(C(c2cccc(NC(=O)CC[C@H](NC(=O)OCc3ccccc3)C(=O)OCc3ccccc3)c2)C2CC2)c(=O)o1 (stereo partly shown) 30.6
